// provenance: patent US12577206B2

ASSAY_TARGET: UniProtKB P21462
PROCEDURE_DETAILS: FPR1 cyclic adenosine monophosphate (cAMP) assay
STATED_CONDITIONS: CHO cells overexpressing human FPR1; forskolin 10 μM; inhibition of cAMP production; HTRF; read-out: hFPR1 cAMP2 EC50
Protocol: N-formyl peptide receptors (FPRs) are a family of chemo attractant receptors that facilitate leukocyte response during inflammation. FPRs belong to the seven-transmembrane G protein-coupled receptor superfamily and are linked to inhibitory G-proteins (Gi). […] FPR2 and FPR1 Cyclic Adenosine Monophosphate (cAMP) Assays. […] The level of intracellular cAMP was determined using the HTRF HiRange cAMP assay reagent kit (Cisbio) according to manufacturer's instruction. […]
Note to self: use y only for EC50 readings below 1000 nM; a reading exactly at 1000 nM still gets n.

COc1cc(F)c(-c2c(NC(=O)c3ccc(OC(F)F)cc3)c(=O)n(-c3nc(NCC(=O)NC4CC4)ccc3C(F)(F)F)n2C)c(F)c1 ... n
COc1cc(F)c(-c2c(NC(=O)c3ccc(OC(F)F)cc3)c(=O)n(-c3ncccc3N(C)C)n2C)c(F)c1 ... n
COc1cc(OC(CO)C(F)(F)F)nc(-n2c(=O)c(NC(=O)c3ccc(OC(F)F)cc3)c(-c3c(F)cc(OC)cc3F)n2C)c1 (centres unmarked) [Example 390] ... n
COc1cc(-n2c(=O)c(NC(=O)c3ccc(OC(F)F)cc3)c(-c3c(F)cc(OC)cc3F)n2C)cc(C(F)(F)F)c1 ... n
COc1cc(F)c(-c2c(NC(=O)c3ccc(OC(F)F)cc3)c(=O)n(-c3nc(N(C)C)ccc3Cl)n2C)c(F)c1 ... y

Task: I wonder whether COc1cc(F)c(-c2c(NC(=O)c3ccc(OC(F)F)cc3)c(=O)n(-c3nc(C4CCN(S(C)(=O)=O)CC4)ccc3C(F)(F)F)n2C)c(F)c1 has EC50 below 1000 nM. Can you tell?
Output: n

Task: Also need COc1cc(F)c(-c2c(NC(=O)c3ccc(OC(F)F)cc3)c(=O)n(-c3ccc(-c4ccccc4)cn3)n2C)c(F)c1 , thanks.
Output: n

Task: Also need COc1cc(F)c(-c2c(NC(=O)c3ccc(OC(F)F)cc3)c(=O)n(-c3cc(C4CCN(C)CC4)cc(C)n3)n2C)c(F)c1 , thanks.
Output: n

Task: Also need COc1cc(F)c(-c2c(NC(=O)c3ccc(OC(F)(F)F)cc3)c(=O)n(-c3cccc(-c4ccccc4)n3)n2C)c(F)c1 , thanks.
Output: y

Task: Also need COc1cc(F)c(-c2c(NC(=O)c3ccc(OC(F)F)cc3)c(=O)n(-c3nc(N[C@H](C)C4CC4)ccc3C(F)(F)F)n2C)c(F)c1 , thanks.
Output: n

---

The reader will find reported EC50 values listed item by item below.
ASSAY_TARGET: human FPR1 (Homo sapiens, UniProt P21462)
Sequence (P21462 whole entry): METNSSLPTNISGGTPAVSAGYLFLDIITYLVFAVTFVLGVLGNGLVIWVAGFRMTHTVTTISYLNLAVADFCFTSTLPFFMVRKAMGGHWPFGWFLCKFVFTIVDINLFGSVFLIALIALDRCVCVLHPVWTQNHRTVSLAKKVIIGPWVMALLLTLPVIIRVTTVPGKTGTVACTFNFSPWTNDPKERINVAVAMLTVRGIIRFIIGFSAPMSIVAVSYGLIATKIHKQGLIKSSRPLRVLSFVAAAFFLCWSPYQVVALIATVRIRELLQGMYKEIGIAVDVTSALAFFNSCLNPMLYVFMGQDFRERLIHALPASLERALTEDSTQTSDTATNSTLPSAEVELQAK
PROCEDURE_DETAILS: FPR1 cyclic adenosine monophosphate (cAMP) assay
STATED_CONDITIONS: CHO cells overexpressing human FPR1; forskolin 10 μM; inhibition of cAMP production; HTRF; read-out: hFPR1 cAMP2 EC50

COc1cc(F)c(-c2c(NC(=O)c3ccc(OC(F)F)cc3)c(=O)n(-c3cc(F)ccc3C)n2C)c(F)c1 ... > 10 µM
Cn1c(-c2ccc(OC(F)F)cc2)c(NC(=O)c2ccc(OC(F)F)cc2)c(=O)n1-c1ncccc1C(F)(F)F ... 0.5 µM
COc1cc(F)c(-c2c(NC(=O)c3ccc(OC(F)F)cc3)c(=O)n(-c3nc(C(F)(F)F)ccc3C#N)n2C)c(F)c1 ... > 10 µM
COc1cc(F)c(-c2c(NC(=O)c3ccc(OC(F)F)cc3)c(=O)n(-c3cccc(-c4ccccc4)n3)n2C)c(F)c1 ... 0.18 µM
COc1cc(F)c(-c2c(NC(=O)c3ccc(OC(F)F)cc3)c(=O)n(-c3nc(NCC(C)(C)O)ccc3C(F)(F)F)n2C)c(F)c1 ... > 10 µM

Task: Record COc1cc(F)c(-c2c(NC(=O)c3ccc(OC(F)F)cc3)c(=O)n(-c3nc(C(F)(F)F)ccc3N(C)CCO)n2C)c(F)c1 : what is its EC50 with human FPR1 (Homo sapiens, UniProt P21462)?
Output: > 10 µM

Task: Also need COc1cc(F)c(-c2c(NC(=O)c3ccc(OC(F)F)cc3)c(=O)n(-c3cc(Cl)ccn3)n2C)c(F)c1 , thanks.
Output: > 10 µM
